Target: Sigma 2 receptor
Experiment: In vitro binding affinity at opioid sigma-2 receptor in rat liver membranes by [3H]-DTG displacement in the presence of 1 uM (+)-pentazocine.
Assay type: cell membranes, Membrane
metric_name: pKi
Note on pKi: it is the negative log10 of concentration, concentration in mol/L.

{"molecule": "COc1cccc2c1CCCC2CCCCCN1CCN(C2CCCCC2)CC1 (stereo unspecified)", "pKi": 9.46}
{"molecule": "c1ccc2c(c1)CCCC2CCCCCN1CCN(C2CCCCC2)CC1 (stereo unspecified)", "pKi": 8.11}
{"molecule": "c1ccc2c(CCCN3CCN(C4CCCCC4)CC3)cccc2c1", "pKi": 9.16}

Prompt line: API: value(readout=pKi, system=Sigma 2 receptor) for record COc1cccc2c1CCCC2CCCCN1CCN(C2CCCCC2)CC1 (stereo unspecified)
Response line: 8.45

Prompt line: I'm curious: which pKi was measured for "COc1cccc2c1CCC[C@H]2CCCN1CCN(C2CCCCC2)CC1" tested on Sigma 2 receptor?
Response line: 8.06

Prompt line: Reported pKi for Sigma 2 receptor, given Oc1ccc2c(c1)CCCC2CCCN1CCN(C2CCCCC2)CC1 (stereo unspecified) ?
Response line: 8.95
